# target system: the molecule itself
# method description: mass photometry; proteins diluted to 5–20 nM in 30 mM HEPES pH 7.4, 5 mM MgSO4, 1 mM EGTA, 10% glycerol; Refeyn TwoMP; profiles fitted to multiple Gaussians
measure name: stoichiometry N

* Nde1^E47A (DIC binding mutant of Nde1) (natural protein, human, UniProt Q9NXR1 1-335, looked up, a fluorescent dye in the colocalization assays, Nde1, human, with E47A; Probably in full-length Nde1; source: Sf9 (baculovirus, pOmniBac), purified (IgG Sepharose, TEV elution, SEC)) MEDSGKTFSSEEEEANYWKDLAMTYKQRAENTQEELREFQEGSREYAAELETQLQQIETRNRDLLSENNRLRMELETIKEKFEVQHSEGYRQISALEDDLAQTKAIKDQLQKYIRELEQANDDLERAKRATIMSLEDFEQRLNQAIERNAFLESELDEKENLLESVQRLKDEARDLRQELAVQQKQEKPRTPMPSSVEAERTDTAVQATGSVPSTPIAHRGPSSSLNTPGSFRRGLDDSTGGTPLTPAARISALNIVGDLLRKVGALESKLASCRNLVYDQSPNRTGGPASGRSSKNRDGGERRPSSTSVPLGDKGLDTSCRWLSKSTTRSSSSC | 2
* human Nde1 (natural protein, UniProt Q9NXR1 1-335, looked up, LD655 or LD555 dye where labelled, Nde1, human; Labelled through a SNAP or a ybbR tag; also called full-length Nde1; WT Nde1; source: Sf9 (baculovirus, pOmniBac), purified (IgG Sepharose, TEV elution, Superdex 200 Increase SEC)) MEDSGKTFSSEEEEANYWKDLAMTYKQRAENTQEELREFQEGSREYEAELETQLQQIETRNRDLLSENNRLRMELETIKEKFEVQHSEGYRQISALEDDLAQTKAIKDQLQKYIRELEQANDDLERAKRATIMSLEDFEQRLNQAIERNAFLESELDEKENLLESVQRLKDEARDLRQELAVQQKQEKPRTPMPSSVEAERTDTAVQATGSVPSTPIAHRGPSSSLNTPGSFRRGLDDSTGGTPLTPAARISALNIVGDLLRKVGALESKLASCRNLVYDQSPNRTGGPASGRSSKNRDGGERRPSSTSVPLGDKGLDTSCRWLSKSTTRSSSSC | 2
